# target of assay: Prothrombin (Homo sapiens)
# experiment summary: Inhibition of thrombin-mediated conversion of fibrinogen to fibrin
Active and inactive are the calls of the source. The rule behind the calls is not given here.

molecule	Activity
COc1ccc2c(c1)C(=O)c1nccc3cc4c(c-2c13)OCO4	inactive
NC(=O)N1CCCC1=O	inactive
COC1=C[C@]23CCN(C)[C@H](Cc4cc(OC)c(O)cc42)C3=CC1=O [FLAVINANTINE]	inactive
CC(C)=C1C=C(CN2CCCC2=O)C(=O)O1	inactive
COc1c2c3c(c4c1OCO4)-c1ccccc1C[C@H]3N(C(C)=O)CC2	inactive
COc1c2c3c(c4c1OCO4)-c1ccccc1[C@@H](O)[C@H]3NCC2	inactive
COC1=C[C@@]23CCN(C)[C@@H](Cc4ccc(OC)c(O)c42)C3=CC1=O	inactive

Origin of the recorded values: ChEMBL document CHEMBL1155763
